This collection of values is drawn from patent US20230265185A1.

Parameter: pKd. Scope: all listed entries.
# STUDY TARGET: T1, recombinant extracellular domain of the predominant human CD22-beta isoform (CD22-ECD) (human, UniProt P20273 20-687, CHO-expressed glycoprotein. Capture on an SA chip implies biotinylation, but the patent does not state it for SPR.)
# T1 construct: Expressed in CHO-3E7 cells, IMAC and SEC purified, monomeric fraction; Results say it was immobilized onto a CM5 dextran chip; also called human CD22-ECD; hCD22 ecto-domain
# T1 sequence: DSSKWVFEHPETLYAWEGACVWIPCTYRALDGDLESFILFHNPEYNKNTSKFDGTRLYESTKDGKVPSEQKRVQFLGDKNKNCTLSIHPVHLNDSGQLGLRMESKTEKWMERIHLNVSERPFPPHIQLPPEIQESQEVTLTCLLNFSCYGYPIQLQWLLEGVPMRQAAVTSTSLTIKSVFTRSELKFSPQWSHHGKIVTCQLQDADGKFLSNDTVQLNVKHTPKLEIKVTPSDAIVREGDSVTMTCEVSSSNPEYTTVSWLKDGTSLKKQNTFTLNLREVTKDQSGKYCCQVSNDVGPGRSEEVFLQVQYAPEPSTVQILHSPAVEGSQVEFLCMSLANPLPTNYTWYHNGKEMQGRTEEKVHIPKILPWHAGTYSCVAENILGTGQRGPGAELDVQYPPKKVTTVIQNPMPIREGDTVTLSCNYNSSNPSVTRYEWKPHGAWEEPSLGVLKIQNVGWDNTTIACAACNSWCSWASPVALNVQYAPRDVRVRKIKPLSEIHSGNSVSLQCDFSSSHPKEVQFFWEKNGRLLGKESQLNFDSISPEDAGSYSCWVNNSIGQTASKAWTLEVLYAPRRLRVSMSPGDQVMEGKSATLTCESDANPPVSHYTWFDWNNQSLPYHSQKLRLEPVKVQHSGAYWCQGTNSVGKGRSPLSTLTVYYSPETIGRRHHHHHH
# TEST DESCRIPTION: SPR, Biacore T200, VHH over immobilized CD22-ECD
# Description: For surface Plasmon resonance, 21 selected VHHs were passed though size exclusion columns, superdex 75 (GE Healthcare), respectively, in 10 mM HEPES, pH 7.4, containing 150 mM NaCl, 3 mM EDTA, monomeric sdAb fractions were collected and protein concentrations were determined by measuring absorbance at 280 nm (A280). Analysis were performed with Biacore T200 instrument (GE Healthcare). […] Data were analysed with BIAevaluation 4.1 software. […]
Bear in mind: pKd is minus log10 of a mol/L concentration; give just that figure.

*Q* Request the reported pKd associated with hCD221ug-61 (VHH, single biotin at the VHH C-terminal (biotinylation signal sequence), llama VHH, expressed in E. coli TG1, IMAC purified, monomeric SEC fraction; also called VHH # 14; 3-hCD22 1ug-61) VHH: QVQLVESGGGLVQAGGSLRLSCAASMSSFSQYVMYWYRQAPGKQRELVATITSYSNTNYADSVKGRFTISRDNAKSIAYLQMDSLKPEDTAVYYCNAQYGSTFIRNHWDDWGQGTQVTVSS
*A* 9.26

*Q* Request the reported pKd associated with hCD221ug-74 (VHH, single biotin at the VHH C-terminal (biotinylation signal sequence), llama VHH, expressed in E. coli TG1, IMAC purified, monomeric SEC fraction; also called VHH # 3) VHH: QVKLEESGGGLVQAGGSLRLSCAGSGFTFDDYAMGWFRQAPGKEREVVSCMGSSDGATYYADSVKGRFTISRDNAKNTVYLQMNSLKPEDTAIYYCAVDKPFYDGGYRYTCPVDFGSWGQGTQVTVSS
*A* 8.15

*Q* Request the reported pKd associated with hCD22pas-24 (VHH, single biotin at the VHH C-terminal (biotinylation signal sequence), llama VHH, expressed in E. coli TG1, IMAC purified, monomeric SEC fraction; also called VHH # 26; 8-hCD22 pas-24) VHH: QVQLVESGGGLVQAGGSLRLSCSASGITSSINSMGWHRQAPGKQRELVASIGRGGSGSTKYADSGKGRFLISRDNNKNILFLEMNSLKPEDTADYYCLEVTTDLSSYWGRGTQVTVSS
*A* 7.58

*Q* Request the reported pKd associated with hCD221ug-14 (VHH, single biotin at the VHH C-terminal (biotinylation signal sequence), llama VHH, expressed in E. coli TG1, IMAC purified, monomeric SEC fraction; also called VHH # 16; 9-hCD22 1ug-14) VHH: QVKLEESGGGLVQAGGSLRLSCAVSGRIFRSYVLGWFRQAPGKERELVARIGWSDTYYADSVKGRFTISRDNAKNTVDLQMNSLKPEDTAVYYCAANSPPYGPQRDEFDYWGQGTQVTVSS
*A* 11.16
